target_under_test: HsHaspin (Homo sapiens, UniProt Q8TF76)
Sequence (Q8TF76 1-798): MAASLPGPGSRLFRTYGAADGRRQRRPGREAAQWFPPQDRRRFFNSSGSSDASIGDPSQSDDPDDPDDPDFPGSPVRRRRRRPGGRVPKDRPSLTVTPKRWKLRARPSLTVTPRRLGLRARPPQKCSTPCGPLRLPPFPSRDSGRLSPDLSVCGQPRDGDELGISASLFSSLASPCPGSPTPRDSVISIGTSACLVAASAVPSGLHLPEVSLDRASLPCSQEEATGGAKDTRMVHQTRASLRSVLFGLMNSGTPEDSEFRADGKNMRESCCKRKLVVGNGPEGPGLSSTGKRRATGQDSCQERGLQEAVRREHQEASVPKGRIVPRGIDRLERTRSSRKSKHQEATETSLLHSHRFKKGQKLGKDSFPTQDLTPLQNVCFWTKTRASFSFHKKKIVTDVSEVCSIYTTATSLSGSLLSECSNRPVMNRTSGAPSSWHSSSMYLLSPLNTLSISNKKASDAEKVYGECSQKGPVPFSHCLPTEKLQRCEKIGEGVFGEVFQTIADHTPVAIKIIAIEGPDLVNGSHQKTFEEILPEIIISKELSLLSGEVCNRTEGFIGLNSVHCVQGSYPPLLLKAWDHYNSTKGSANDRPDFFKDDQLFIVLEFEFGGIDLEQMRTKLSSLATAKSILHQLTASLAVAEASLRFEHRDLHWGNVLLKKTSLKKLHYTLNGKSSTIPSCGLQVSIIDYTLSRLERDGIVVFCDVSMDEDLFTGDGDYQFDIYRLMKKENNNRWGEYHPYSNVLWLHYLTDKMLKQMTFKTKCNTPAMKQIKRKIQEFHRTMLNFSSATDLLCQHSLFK
test_summary: ADP-Glo kinase assay
Type: biochemical, Homo sapiens (Hs)
study_conditions: 1 μM; mean n = 2; % of maximum activity of DMSO control; read-out: % Residual activity at 1 μM Haspin
Protocol: Kinase activities were determined using the ADP-Glo methodology (ADP-Glo Kinase Assay; Promega) according to the assay described by Nguyen et al.[32] except for MmCLK1. The later was assayed in the following buffer: 10 mM MgCl2, 1 mM EGTA, 1 mM DTT, 25 mM Tris-HCl pH 7.5, 50 µg/ml heparin, 0.15 mg/ml BSA, with 0.027 µg/µl of the following peptide: GRSRSRSRSRSR as substrate.
measurement_label: remaining activity at 1 µM (%)

# molecule, experimental_value
rows = [
    ("COc1ccc2[nH]c3c(=O)[nH]c4cc(O)ccc4c3c2c1 [Compound 54]", 0),
]

I. COc1ccc2c(c1)[nH]c1c(=O)[nH]c3ccc(OC)cc3c12 [Compound 59]
II. COc1ccc2c(c1)c1c3cc(N(C)C)ccc3[nH]c(=O)c1n2C [Compound 64]
III. COc1ccc2[nH]c3c(=O)[nH]c4cc(OC)c(OC)cc4c3c2c1 [Compound 52]
IV. COc1ccc2c(c1)c1c3cc(O)ccc3[nH]c(=O)c1n2C [Compound 62]
Asked: Highest remaining activity at 1 µM first, then in falling order down to the smallest. # respond with the labels, arranged in the requested order
Given back: II, I, III, IV
